Experiment: chemical recovery from spiked human plasma; higher = better extraction
Conditions: pooled human plasma; extraction method: SPE only (HLB 96-well), PES comparison experiment
test.readout: chemical recovery (%)
Express your answer in %, writing the number without its unit.

Sample answers from the record:
>>> data_value("CCCCCCCC[N+](C)(C)C [Trimethyloctylammonium]")
45.7
>>> data_value("CC1(C)O[C@@H]2C[C@H]3[C@@H]4C[C@H](F)C5=CC(=O)C=C[C@]5(C)[C@H]4[C@@H](O)C[C@]3(C)[C@]2(C(=O)CO)O1 [Flunisolide]")
46.9
>>> data_value("NC(=O)N1c2ccccc2C=Cc2ccccc21 [Carbamazepine]")
52.6
>>> data_value("CN1CCCC(n2nc(Cc3ccc(Cl)cc3)c3ccccc3c2=O)CC1 (centres undefined) [Azelastine]")
43.9
>>> data_value("Clc1ccc(Cl)c(-c2ccccc2Cl)c1 [PCB18]")
10

If you can, please state the reported chemical recovery value of CNC(=O)/C(=N/OC)c1ccccc1COc1cc(C)ccc1C [Dimoxystrobin] . 50.3

Another molecule to look at: c1ccc2nc3ccccc3cc2c1 [Acridine] 51.6

Another molecule to look at: CC(=O)CC(c1ccccc1)c1c(O)c2ccccc2oc1=O (centres undefined) [Warfarin] 56.6

Another molecule to look at: Cn1c(N)nc2ncc(-c3ccccc3)cc21 [2-Amino-1-methyl-6-phenylimidazo[4,5-b]pyridine (PhIP)] 47

* * *

Assay: chemical recovery from spiked human plasma; higher = better extraction
Details: pooled human plasma; extraction method: solvent precipitation (ACN + hexane)
Use 70% as the dividing line for chemical recovery, with the line itself on the Y side and lower values as N.

The examples below pair each entry with its known result.
>>> label_value("COC(=O)[C@H](c1ccccc1Cl)N1CCc2sccc2C1")
"Y"
>>> label_value("ClC(Cl)=C(c1ccc(Cl)cc1)c1ccc(Cl)cc1")
"N"
>>> label_value("c1ccc2c(c1)[nH]c1ncccc12")
"Y"
>>> label_value("c1ccc2c(c1)-c1cccc3c1c-2cc1ccccc13")
"N"
>>> label_value("ClC1=C(Cl)C2(Cl)C3C4OC4C(Cl)C3C1(Cl)C2(Cl)Cl (stereo unspecified) [Heptachlor epoxide]")
"N"
>>> label_value("CCCCCCCCCCCCCCCC[N+](C)(C)Cc1ccccc1")
"N"
>>> label_value("Brc1cc(Br)c(Oc2cc(Br)c(Br)cc2Br)cc1Br")
"N"
>>> label_value("COc1cnc(OC)n2nc(NS(=O)(=O)c3c(OCC(F)F)cccc3C(F)(F)F)nc12")
"Y"

Check if chemical recovery >= 70% (inclusive). Item: `CS(=O)(=O)c1ccc(C(=O)C2C(=O)CCCC2=O)c(Cl)c1` Y

Another molecule to look at: CNS(=O)(=O)c1ccccc1 [N-Methylbenzenesulfonamide] Y

Another molecule to look at: `CCN(CC)C(=O)c1cccc(C)c1` N

Another molecule to look at: CC(C)NCC(O)COc1cccc2[nH]ccc12 (stereo unspecified) Y

* * *

Test: chemical recovery from spiked human plasma; higher = better extraction
Conditions: pooled human plasma; extraction method: PES+SPE (3 d PDMS equilibration then HLB SPE)
test.readout: chemical recovery (%)
Express your answer in %, writing the number without its unit.

Sample answers from the record:
>>> data_value("O=C(Nc1ccccc1)NC1CCCCC1")
70.3
>>> data_value("COc1cccc([C@@]2(O)CCCC[C@@H]2CN(C)C)c1")
31.3
>>> data_value("N=C(Nc1ccccc1)Nc1ccccc1")
22.6
>>> data_value("CS(=O)(=O)OC[C@H](O)[C@@H](O)COS(C)(=O)=O")
7.98
>>> data_value("CC1(C)[C@@H](O[C@H]2O[C@H](C(=O)O)[C@@H](O)[C@H](O)[C@H]2O[C@@H]2O[C@H](C(=O)O)[C@@H](O)[C@H](O)[C@H]2O)CC[C@]2(C)[C@H]3C(=O)C=C4[C@@H]5C[C@@](C)(C(=O)O)CC[C@]5(C)CC[C@@]4(C)[C@]3(C)CC[C@@H]12")
14.5
>>> data_value("O=C(c1ccccc1)c1ccc(O)cc1 [4-Hydroxybenzophenone]")
65.9
>>> data_value("CNC(=O)Oc1ccccc1OC(C)C")
33.3
>>> data_value("CCNS(=O)(=O)c1ccccc1C [N-Ethyl-o-toluenesulfonamide]")
52.7

We now examine a further compound.
If you can, please state the reported chemical recovery value of CC(Oc1ccc(Oc2cnc3cc(Cl)ccc3n2)cc1)C(=O)O (stereo not drawn) . 43.1
